# IC50 listing for each entry below
# study.target: Muscarinic acetylcholine receptor
# test.description: In vitro displacement of [3H]quinuclidinyl benzilate (QNB) from rat cerebral cortex muscarinic receptor.
# Assay type: tissue-based
The reply should be a number in µM, with the unit left off.

A selection of reference data follows.
Cn1ncc([C@H]2CN3CC[C@H]2C3)n1 ... 2.8
Nc1nnn(C23CCCN(CC2)C3)n1 (stereo unspecified) ... 2.67
Cn1nnc([C@@H]2CN3CC[C@H]2C3)n1 ... 30.6
c1ncn(C23CCCN(CC2)C3)n1 (stereo unspecified) ... 3.6

Then there is this compound:
Report measured IC50; entry is Cc1nnn([C@H]2CN3CC[C@H]2C3)n1
1.9
